Experiment: ATG_PPRE_CIS: Attagene CIS-FACTORIAL HepG2 Assay for human Peroxisome Proliferator-activated Response Element (PPRE) (AID 2282958)
Details: HepG2 PPRE cis-element reporter, Attagene transcription factor profiling; actives raise or lower the signal
Calls of active or inactive are those of the source. The calls were made as follows: active = hit-call score of the fitted dose curve at least 0.9, where 1 is the maximum; inactive = score below 0.9.
Possible outcomes: YES for active, NO for inactive

> print(dat)
                                    molecule  label.value
 1                                 NC(=O)CCl           NO
 2                               C=CCOC(N)=O           NO
 3                O=[N+]([O-])c1cccc2ccccc12           NO
 4                               O=C(CCl)NCO           NO
 5                            Clc1cccc(Cl)c1           NO
 6  CC(C)(C)c1cc([N+](=O)[O-])cc(C(C)(C)C)c1O          YES
 7  CC(C)[C@@H](Nc1ccc(C(F)(F)F)cc1Cl)C(=O)OC(C#N)c1cccc(Oc2ccccc2)c1 (stereo partly drawn)           NO
 8        CCN(CC)C(=O)C(Cl)=C(C)OP(=O)(OC)OC           NO
 9  CCOC(=O)c1ccccc1S(=O)(=O)NC(=O)Nc1nc(Cl)cc(OC)n1           NO
10           O=S(=O)(C(Cl)(Cl)Cl)C(Cl)(Cl)Cl           NO
11                   C=CC(=O)NC(C)(C)CC(C)=O           NO
12                     CCCCOP(=O)(CCCC)OCCCC           NO
13  CC1(C)[C@H](/C=C2\CCSC2=O)[C@@H]1C(=O)OCc1coc(Cc2ccccc2)c1           NO

---

Read-out: Plasminogen activator inhibitor-1 (PAI1), SERPINE1 (gene 5054)
Experiment: BSK_hDFCGF_PAI1: BioMAP Diversity Plus: hDFCGF Assay for Plasminogen activator inhibitor-1 (PAI1) Biomarker Activity (AID 2283066)
Settings: primary human foreskin fibroblasts; actives raise or lower the signal
Description: BSK_hDFCGF is a cell-based, multiplexed-readout assay that uses foreskin fibroblast, a human skin primary cell, with measurements taken at 24 hours after chemical dosing in a 96-well plate.BSK_hDFCGF_PAI1 is an assay component measured in the BSK_hDFCGF assay. It measures PAI-1 antibody related to regulation of gene expression using ELISA technology.Data from the assay component BSK_hDFCGF_PAI1 was analyzed into 1 assay endpoint. […]
Active and inactive are the calls of the source. Rule for the calls: active = hit-call score of the fitted dose curve at least 0.9, where 1 is the maximum; inactive = score below 0.9.
Classes used: active, inactive

> print(dat)
                                   molecule  label.value
1       Cc1ccccc1OP(=O)(Oc1ccccc1)Oc1ccccc1     inactive
2    COCC(=O)N(c1c(C)cccc1C)[C@H](C)C(=O)OC     inactive
3  Nc1c(Oc2ccccc2)cc(O)c2c1C(=O)c1ccccc1C2=O     inactive
4          CCCCCCCCCCCCc1cccc(S(=O)(=O)O)c1       active
5                            Clc1cccc(Cl)c1     inactive
6  Cc1ccc(OP(=O)(Oc2ccc(C)cc2C)Oc2ccc(C)cc2C)c(C)c1       active
7  Cc1c([N+](=O)[O-])c(C)c([N+](=O)[O-])c(C(C)(C)C)c1[N+](=O)[O-]       active

---

Biological target: Hepatocyte nuclear factor 6 (Homo sapiens) (UniProt Q9UBC0)
Sequence (Q9UBC0 whole entry, looked up): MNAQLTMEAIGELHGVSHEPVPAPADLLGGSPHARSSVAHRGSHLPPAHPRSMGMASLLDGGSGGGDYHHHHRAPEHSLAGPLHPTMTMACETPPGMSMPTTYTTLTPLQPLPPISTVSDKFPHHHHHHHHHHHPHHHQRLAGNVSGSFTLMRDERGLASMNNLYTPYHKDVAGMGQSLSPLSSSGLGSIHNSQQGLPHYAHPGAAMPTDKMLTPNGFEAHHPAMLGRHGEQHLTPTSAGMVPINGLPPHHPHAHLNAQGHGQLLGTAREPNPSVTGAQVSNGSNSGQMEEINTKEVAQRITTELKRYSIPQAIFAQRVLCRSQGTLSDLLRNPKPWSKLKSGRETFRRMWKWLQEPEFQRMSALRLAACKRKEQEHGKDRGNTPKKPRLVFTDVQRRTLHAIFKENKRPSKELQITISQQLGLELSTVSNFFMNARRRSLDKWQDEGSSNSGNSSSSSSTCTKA
Assay: ATG_HNF6_CIS: Attagene CIS-FACTORIAL HepG2 Assay for human Hepatocyte Nuclear Factor 6 (HNF6) (AID 2282952)
Conditions: HepG2 Attagene cis-factorial HNF6 reporter transcription; actives raise or lower the signal
Active and inactive are the calls of the source. How the source made its calls: active means hit-call score of the fitted dose curve at least 0.9, where 1 is the maximum; inactive means score below 0.9.
Labels: Y for active, N for inactive

molecule	label.value
Cc1ccc(OP(=O)(Oc2ccc(C)cc2C)Oc2ccc(C)cc2C)c(C)c1	Y
O=C(NC(=O)c1c(F)cccc1F)Nc1cc(Cl)c(F)c(Cl)c1F	N
C=CC(=O)[O][Sn]([CH2]CCC)([CH2]CCC)[CH2]CCC	Y
COC(F)(C(F)(F)C(F)(F)F)C(F)(C(F)(F)F)C(F)(F)F (configuration not stated)	N
C=CCCl	N
CCCCCCCCCCBr	N
C=CC(Cl)CCl (configuration not stated)	N
CC(C)(c1ccc(O)c(-c2ccccc2)c1)c1ccc(O)c(-c2ccccc2)c1	N
CCC[CH2][Sn]([CH2]CCC)([CH2]CCC)[CH2]CCC	N
C[As+](C)(C)CC(=O)[O-]	N
COc1ccccc1N	N
Nc1cccnc1	N
CNC(=O)O/N=C/C(C)(C)S(C)(=O)=O	N
Clc1ccc(C(Cl)(Cl)Cl)cn1	N
CCCCCCCCCCCCOS(=O)(=O)O	N
Cc1cc(Cl)ccc1OCCCC(=O)O	N
CNC(=O)N(C)c1nc2ccccc2s1	N
OC(c1ccc(Cl)cc1)(c1ccc(Cl)cc1)c1cccnc1	N
N#CCCC(Br)(C#N)CBr (configuration not stated)	Y
C[C@@H]1O[C@@H](O[C@H]2C[C@@H](O)[C@]3(CO)[C@H]4[C@H](O)C[C@]5(C)[C@@H](C6=CC(=O)OC6)CC[C@]5(O)[C@@H]4CC[C@]3(O)C2)[C@H](O)[C@H](O)[C@H]1O	Y
CCC(C)(C#N)N=NC(C)(C#N)CC (configuration not stated)	N
CC(C)(C1CCC(O)CC1)C1CCC(O)CC1 (configuration not stated)	N
COc1nn(C(=O)NS(=O)(=O)c2ccccc2OC(F)(F)F)c(=O)n1C	N
CC(C=O)Cc1ccc2c(c1)OCO2 (configuration not stated)	N
CC(C)(C)c1ccccc1O	Y
NC(=O)CCl	N
Oc1cc(Cl)c(Cl)cc1Cl	N

---

Read-out: Actin alpha 1 (ACTA1), ACTA1 (gene 58)
Assay: BSK_MyoF_ACTA1: BioMAP Diversity Plus: MyoF Assay for Actin alpha 1 (ACTA1) Biomarker Activity (AID 2284244)
Conditions: primary human lung fibroblasts
Active and inactive are the calls of the source. How the source made its calls: active means hit-call score of the fitted dose curve at least 0.9, where 1 is the maximum; inactive means score below 0.9.
Outcomes: active, inactive

> print(dat)
                                   molecule  label.value
1  CC1(C)[C@H](C(=O)O[C@H](C#N)c2cccc(Oc3ccccc3)c2)[C@@H]1/C=C(\Cl)C(F)(F)F     inactive
2  CC(C=O)Cc1ccc2c(c1)OCO2 (configuration not stated)     inactive
3                      Oc1cccc(-c2ccccc2)c1       active
4                O=[N+]([O-])c1cccc2ccccc12     inactive
5  C#CCOC(=O)/C=C(C)/C=C/CC(C)CCCC(C)C (configuration not stated)       active
6                            Cc1cc(Cl)ccc1N     inactive
7                              Nc1ccc(N)cc1     inactive

---

Read-out: Macrophage colony-stimulating factor (MCSF), CSF1 (gene 1435)
Assay: BSK_CASM3C_MCSF: BioMAP Diversity Plus: CASM3C Assay for Macrophage colony-stimulating factor (MCSF) Biomarker Activity (AID 2283044);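 also: M-CSF protein amount quantified by ELISA after 24 h exposure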
Details: primary human coronary artery smooth muscle cells; actives raise or lower the signal
The source made the active and inactive calls. The calls were made as follows: active = hit-call score of the fitted dose curve at least 0.9, where 1 is the maximum; inactive = score below 0.9.
Labels: y (active), n (inactive)

> print(dat)
                                   compound  label.value
1  CC1(C)[C@H](C(=O)O[C@H](C#N)c2cccc(Oc3ccccc3)c2)[C@@H]1/C=C(\Cl)C(F)(F)F            n
2  Cc1ccc(OP(=O)(Oc2ccc(C)cc2C)Oc2ccc(C)cc2C)c(C)c1            y
3    N#CCCC(Br)(C#N)CBr (centres undefined)            y
4                              OCCN(CCO)CCO            n
5          CCCCCCCCCCCCc1cccc(S(=O)(=O)O)c1            n
6  C#CCOC(=O)/C=C(C)/C=C/CC(C)CCCC(C)C (centres undefined)            n
7                               COc1ccccc1N            n
8  C[C@]12CC[C@@H](O)C[C@@H]1CC[C@@H]1[C@@H]2CC[C@]2(C)C(=O)CC[C@@H]12            n
9       CCOP(=O)(OCC)OC(=CCl)c1ccc(Cl)cc1Cl            y

---

Read-out: Interleukin-1 alpha (IL1a), IL1A (gene 3552)
Experiment: BSK_LPS_IL1a: BioMAP Diversity Plus: LPS Assay for Interleukin-1 alpha (IL1a) Biomarker Activity (AID 2283080)
Conditions: primary human HUVEC with PBMC; actives raise or lower the signal
Active and inactive are the calls of the source. The calls were made as follows: active = hit-call score of the fitted dose curve at least 0.9, where 1 is the maximum; inactive = score below 0.9.
Outcome codes: 1 (yes) = active, 0 (no) = inactive

> print(dat)
                                   compound  label.value
1                                    OCCCCO       0 (no)
2            c1ccc(-c2cccc(-c3ccccc3)c2)cc1      1 (yes)
3  OC(Cc1ccccc1Cl)(Cn1[nH]cnc1=S)C1(Cl)CC1 (centres undefined)       0 (no)
4                           Cc1cc(C)cc(C)c1       0 (no)
5  CCOC(=O)C(SP(=S)(OC)OC)c1ccccc1 (centres undefined)       0 (no)
6  CCOC(=O)CCN(SN(C)C(=O)Oc1cccc2c1OC(C)(C)C2)C(C)C       0 (no)
7                          Clc1cccc(Cl)c1Cl       0 (no)
8   O=S(=O)(c1ccc(Cl)cc1)c1cc(Cl)c(Cl)cc1Cl       0 (no)
9                            Cc1cc(Cl)ccc1N       0 (no)
